Hey, just so you know, these numbers are from patent US20150010928A1.

test system: male rats; experiment: Plasma metabolite profiling (GC-MS, LC-MS, SPE-LC-MS) in male rats dosed once daily over 28 days (OECD 407); assay type: in vivo, rat; conditions: m28; high dose; Table 14b
Counter-ions that a name gives are not always drawn.
Rule: erythro-Sphingosine (d18:1) below 0.4 gives satisfied. Equal to or above 0.4 gives not satisfied.

[[record]]
compound = "C#C[C@]1(O)CC[C@H]2[C@@H]3CCc4cc(O)ccc4[C@H]3CC[C@@]21C"
class_assignment = "satisfied"

[[record]]
compound = "C[C@]12C=CC3=C4CCC(=O)C=C4CCC3C1CC[C@@H]2O (stereo partly drawn)"
class_assignment = "satisfied"

[[record]]
compound = "C[C@]12CCC(=O)C=C1CC[C@@H]1[C@@H]2CC[C@@]2(C)[C@H]1CC[C@]2(C)O"
class_assignment = "satisfied"

[[record]]
compound = "O=C(c1ccc(OCCN2CCCCC2)cc1)c1c(-c2ccc(O)cc2)sc2cc(O)ccc12 [Raloxifene Hydrochloride]"
class_assignment = "not satisfied"

[[record]]
compound = "OCCNCCO"
class_assignment = "not satisfied"

[[record]]
compound = "CC/C(=C(\\c1ccccc1)c1ccc(OCCN(C)C)cc1)c1ccccc1"
class_assignment = "not satisfied"


---

Parameter: 5-O-Methylsphingosine (d18:1). Scope: all listed entries.
tested on: male rats; assay: Plasma metabolite profiling (GC-MS, LC-MS, SPE-LC-MS) in male rats dosed once daily over 28 days (OECD 407); format: in vivo, rat; details: m14; high dose; Table 10a
Structures can show the parent of a compound that is named as a salt. Marks after values point to notes of the source that are not given here.
Reported Metric: 5-O-Methylsphingosine (d18:1)

[[record]]
compound = "Cc1cccc(C)c1N(Cn1cccn1)C(=O)CCl"
target_entity = "male rats"
reported_metric = "5-O-Methylsphingosine (d18:1)"
reported_measurement = "4.66 *"

[[record]]
compound = "CNCCC(Oc1ccc(C(F)(F)F)cc1)c1ccccc1 (stereo not shown) [Fluoxetine hydrochloride]"
target_entity = "male rats"
reported_metric = "5-O-Methylsphingosine (d18:1)"
reported_measurement = "1.67 *"

[[record]]
compound = "Cn1cc[nH]c1=S"
target_entity = "male rats"
reported_metric = "5-O-Methylsphingosine (d18:1)"
reported_measurement = "4.75 *"

[[record]]
compound = "CC(C)C(=O)Nc1ccc([N+](=O)[O-])c(C(F)(F)F)c1 [Flutamide]"
target_entity = "male rats"
reported_metric = "5-O-Methylsphingosine (d18:1)"
reported_measurement = 0.81


---

tested on: male rats; assay: Plasma metabolite profiling (GC-MS, LC-MS, SPE-LC-MS) in male rats dosed once daily over 28 days (OECD 407); type: in vivo, rat; conditions: m14; high dose; Table 10b
Structures can show the parent of a compound that is named as a salt. Marks after values point to notes of the source that are not given here.
trans-4-Hydroxyproline values for the compounds below.
Reported Metric: trans-4-Hydroxyproline

[[record]]
compound = "CC(C)C(=O)Nc1ccc([N+](=O)[O-])c(C(F)(F)F)c1 [Flutamide]"
reported_measurement = "0.89 *"

[[record]]
compound = "Cn1cc[nH]c1=S"
reported_measurement = "0.76 *"

[[record]]
compound = "CNCCC(Oc1ccc(C(F)(F)F)cc1)c1ccccc1 (stereo not shown) [Fluoxetine hydrochloride]"
reported_measurement = "0.83 *"

[[record]]
compound = "Cc1cccc(C)c1N(Cn1cccn1)C(=O)CCl"
reported_measurement = "0.72 *"

